# CONDITIONS USED: in n-butanol, 318.15 K
ASSAY ENDPOINT: solubility (mole fraction)
Respond numerically, and do not add a unit to the figure.

Q: solubility (mole fraction) lookup needed for "COc1ccc(C(=O)O)c(OC)c1" , thanks.
A: 0.0393

====

# CONDITIONS USED: in isopropanol, 323.15 K
ASSAY ENDPOINT: solubility (mole fraction)
Could you respond with only the numeric value?

Q: Which measured solubility (mole fraction) value corresponds to "COc1ccc(C(=O)O)c(OC)c1" ?
A: 0.0445

====

# CONDITIONS USED: in ethanol, 308.15 K
ASSAY ENDPOINT: solubility (mole fraction)
Write no unit; give the number alone.

Q: What does the record list as solubility (mole fraction) for "COc1ccc(C(=O)O)c(OC)c1" ?
A: 0.0312
